# System: MOLT-4
# measurement protocol: NCI tumour cell line growth inhibition, 48 h
Activity calls are given as the source filed them. Rule as the data show it: active = GI50 up to about 1.1 µM and inactive = higher.
measured attribute: GI50

// solved cases for GI50 follow
{"columns": ["molecule", "result"],
 "data": [
  ["CCOC(=O)C1C(=O)C(C(=O)OCC)C(c2ccccc2)N(C)C1c1ccccc1 (stereo not drawn)", "49.5 µM (inactive)"],
  ["CCOC(=O)c1nc2ccc(C(F)(F)F)cc2nc1Nc1cc(OC)c(OC)c(OC)c1", "> 100 µM (inactive)"]
]}

As a next step, examine the molecule that follows.
[in] Returns the measured GI50 for the input molecule. Input: Cc1ccc(S(=O)(=O)OC(c2ccc(Cl)cc2Cl)C2OC(=O)c3ccccc32)cc1 (stereo not drawn)
[out] 30.2 µM (inactive)

###

# Test system: 786-0
# measurement protocol: NCI tumour cell line growth inhibition, 48 h
Active and inactive are the calls of the source. Rule as the data show it: active = GI50 up to about 1.1 µM and inactive = higher.
List of GI50 values.

// solved cases for GI50 follow
{"columns": ["compound", "result"],
 "data": [
  ["O=C1CC(c2c(-c3ccccc3)[nH]c3ccccc23)C(=O)N1c1ccccc1 (stereo not drawn)", "> 100 µM (inactive)"],
  ["COc1ccc(S(=O)(=O)Nc2ccccc2C(=O)O)cc1", "> 100 µM (inactive)"]
]}

[in] Returns the measured GI50 for the input compound. Input: COC(=O)C1(NC(=O)C(N)CC(=O)O)C(C)C1C (stereo not drawn)
[out] > 100 µM (inactive)

[in] Returns the measured GI50 for the input compound. Input: CS(=O)(=O)OC1CCC2(C#N)CCC1C2=O (stereo not drawn)
[out] 79.6 µM (inactive)

[in] Returns the measured GI50 for the input compound. Input: O=C(Nc1ccc(Cl)cc1Cl)C1C(=O)OC2(CCCCC2)OC1=O
[out] 12.2 µM (inactive)

[in] Returns the measured GI50 for the input compound. Input: CC(=O)N[C@H]1CCCC[C@@H]1OC(C)=O
[out] > 100 µM (inactive)

[in] Returns the measured GI50 for the input compound. Input: NC(=O)NCc1c(C(N)=O)ncn1Cc1ccccc1
[out] > 100 µM (inactive)

[in] Returns the measured GI50 for the input compound. Input: O=C(O)CN1CCN2CCCCCN(CC1)CCN(CC(=O)O)CC2
[out] > 100 µM (inactive)

###

List of GI50 values.
# System: M19-MEL
# measurement protocol: NCI tumour cell line growth inhibition, 48 h
Activity calls are given as the source filed them. No stated cut-off is given here; in the data, active = GI50 up to about 1.1 µM and inactive = higher.

{"columns": ["compound", "result"],
 "data": [
  ["Cc1cc(Br)cc(C)c1NC(=O)C(=O)CC(=O)c1sc(-n2nc(-c3ccccc3)cc2-c2ccccc2)nc1C", "> 100 µM (inactive)"],
  ["Cc1cn(C2C=CC(=O)C(C)O2)c(=O)[nH]c1=O (configuration not stated)", "15.8 µM (inactive)"],
  ["C=C1CC[C@@H]2C(C)(C)C(O)CCC2(C)C1COc1ccc2ccc(=O)oc2c1 (some centres not stated)", "18.4 µM (inactive)"]
]}

[in] Returns the measured GI50 for the input compound. Input: CCn1c2ccccc2c2ccc3c(c21)C(=O)c1ccccc1C3=O
[out] 24.2 µM (inactive)

[in] Returns the measured GI50 for the input compound. Input: CC(C)c1cccc(C(C)C)c1NC(=O)C(=O)C(C(=O)c1ccc2ccccc2c1)C1OC(=O)c2ccccc21 (configuration not stated)
[out] 26.7 µM (inactive)

[in] Returns the measured GI50 for the input compound. Input: CCc1cccc(C)c1NC(=O)C(=O)CC(=O)c1ccc(Cl)s1
[out] > 100 µM (inactive)

[in] Returns the measured GI50 for the input compound. Input: CCOC(=O)c1cc(C(=O)O)c(=O)n2c1[nH]c1ccccc12
[out] > 100 µM (inactive)
